Provenance of the data: PubChem BioAssay AID2060497

# Tested on: 317291-083-R-J1-PDC complex spheroids, viability;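 further: spheroids exposed to compounds for one week before readout; percent viability relative to DMSO vehicle wells taken as 100%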
# Test Method Notes: Anticancer human tumor 317291-083-R-J1-PDC patient-derived soft tissue sarcoma cell line growth inhibition [GQUAD]; active means viability on the fitted dose curve at most 10% of control; inactive means the rest
# Condition Set: second compound 0.316 µM; first compound 0.316 µM
# From the text: DNA G-quadruplex Stabilizer Agents in Combinations in Complex Spheroids A high-throughput screen of multi-cell type tumor spheroids was designed to identify active combinations of DNA G-quadruplex stabilizer agents and targeted small molecules. […] Compounds. […] If the clinical Cmax for an agent had not been determined, the highest concentration tested was 10 microM. […]
Output constraint: value belongs to 1 = active, 0 = inactive

>>> label("Cn1ncnc1[C@H]1c2n[nH]c(=O)c3cc(F)cc(c23)N[C@@H]1c1ccc(F)cc1 + Cc1cnc(CNC(=O)c2c(=O)c3ccc(N4CCCN(C)CC4)nc3n3c2sc2ccccc23)cn1")
0
>>> label("CCc1c2c(nc3ccc(O)cc13)-c1cc3c(c(=O)n1C2)COC(=O)[C@]3(O)CC + CN(C)c1ccc(Nc2c3ccc(NC(=O)CCN4CCCC4)cc3nc3cc(NC(=O)CCN4CCCC4)ccc23)cc1")
1
>>> label("CC(C)n1c(=O)n(C)c2cnc3cc(F)c(-c4ccc(OCCCN5CCCCC5)nc4)cc3c21 + Cc1cnc(CNC(=O)c2c(=O)c3ccc(N4CCCN(C)CC4)nc3n3c2sc2ccccc23)cn1")
0

### Prompt What did this assay record as the result for C=CCn1c(=O)c2cnc(Nc3ccc(N4CCN(C)CC4)cc3)nc2n1-c1cccc(C(C)(C)O)n1 + Cc1[nH]c2ccc(F)cc2c1-c1nc2c3cccnc3c3ncccc3c2[nH]1 ?
### Response 0

### Prompt Give the logged outcome of this assay for the following compound: COc1ccc([C@@H](O)c2cc(-c3ncnc4cc(N5CCOCC5)ccc34)c(F)cc2Cl)nn1 + Cc1[nH]c2ccc(F)cc2c1-c1nc2c3cccnc3c3ncccc3c2[nH]1
### Response 0

### Prompt Test call for this compound, please: C#Cc1c(F)ccc2cc(O)cc(-c3ncc4c(N5CC6CCC(C5)N6)nc(OCC56CCCN5CC(F)C6)nc4c3F)c12 (stereo unspecified) + Cc1cnc(CNC(=O)c2c(=O)c3ccc(N4CCCN(C)CC4)nc3n3c2sc2ccccc23)cn1
### Response 0

### Prompt How did this test come out for CC1COCCN1c1cc(-c2ccnn2C)c2ccnc(-c3ccn[nH]3)c2n1 (stereo unspecified) + CN(C)c1ccc(Nc2c3ccc(NC(=O)CCN4CCCC4)cc3nc3cc(NC(=O)CCN4CCCC4)ccc23)cc1 ?
### Response 0

### Prompt Recorded test outcome, item Cc1[nH]c2ccccc2c1CCNCc1ccc(/C=C/C(=O)NO)cc1 + CN(C)c1ccc(Nc2c3ccc(NC(=O)CCN4CCCC4)cc3nc3cc(NC(=O)CCN4CCCC4)ccc23)cc1
### Response 1

### Prompt Identify the outcome logged in this assay for the compound shown: CC[C@@]1(O)C(=O)OCc2c1cc1n(c2=O)Cc2cc3c(CN(C)C)c(O)ccc3nc2-1 + Cc1[nH]c2ccc(F)cc2c1-c1nc2c3cccnc3c3ncccc3c2[nH]1
### Response 1

### Prompt Record lookup: outcome of this test for CC[C@@]1(O)C(=O)OCc2c1cc1n(c2=O)Cc2cc3c(CN(C)C)c(O)ccc3nc2-1 + CN(C)c1ccc(Nc2c3ccc(NC(=O)CCN4CCCC4)cc3nc3cc(NC(=O)CCN4CCCC4)ccc23)cc1 ?
### Response 0

### Prompt What outcome does the record of this test show for Cn1ncnc1[C@H]1c2n[nH]c(=O)c3cc(F)cc(c23)N[C@@H]1c1ccc(F)cc1 + Cc1[nH]c2ccc(F)cc2c1-c1nc2c3cccnc3c3ncccc3c2[nH]1 ?
### Response 0

### Prompt State the result this test recorded for COc1ncnc(C2CC2)c1-c1ncc2cnn(Cc3ccc(-c4nc(C(F)(F)F)cn4C(C)C)cc3)c2n1 + Cc1cnc(CNC(=O)c2c(=O)c3ccc(N4CCCN(C)CC4)nc3n3c2sc2ccccc23)cn1 .
### Response 0

### Prompt Hey, what did the test say about COc1ccc([C@@H](O)c2cc(-c3ncnc4cc(N5CCOCC5)ccc34)c(F)cc2Cl)nn1 + Cc1cnc(CNC(=O)c2c(=O)c3ccc(N4CCCN(C)CC4)nc3n3c2sc2ccccc23)cn1 ?
### Response 0

### Prompt For CC(C)(O)C1CCC(Nc2ccc3ncc(-c4cccc(C(F)(F)F)c4)n3n2)CC1 (stereo unspecified) + CN(C)c1ccc(Nc2c3ccc(NC(=O)CCN4CCCC4)cc3nc3cc(NC(=O)CCN4CCCC4)ccc23)cc1 , which call appears in the assay record?
### Response 0

### Prompt State the result this test recorded for CC1COCCN1c1cc(-c2ccnn2C)c2ccnc(-c3ccn[nH]3)c2n1 (stereo unspecified) + Cc1[nH]c2ccc(F)cc2c1-c1nc2c3cccnc3c3ncccc3c2[nH]1 .
### Response 0

### Prompt Recorded test outcome, item CC1COCCN1c1cc(C2(S(C)(=N)=O)CC2)nc(-c2ccnc3[nH]ccc23)n1 (stereo unspecified) + CN(C)c1ccc(Nc2c3ccc(NC(=O)CCN4CCCC4)cc3nc3cc(NC(=O)CCN4CCCC4)ccc23)cc1
### Response 0

### Prompt I'd appreciate the recorded outcome for Cc1[nH]c2ccccc2c1CCNCc1ccc(/C=C/C(=O)NO)cc1 + Cc1cnc(CNC(=O)c2c(=O)c3ccc(N4CCCN(C)CC4)nc3n3c2sc2ccccc23)cn1 from this test.
### Response 1

### Prompt Can you look up the reported call for O=C(NO)c1cnc(N2CCN(S(=O)(=O)c3ccc4ccccc4c3)CC2)nc1 + Cc1cnc(CNC(=O)c2c(=O)c3ccc(N4CCCN(C)CC4)nc3n3c2sc2ccccc23)cn1 for me?
### Response 1

### Prompt What call does the record list for CCCS(=O)(=O)Nc1ccc(F)c(C(=O)c2c[nH]c3ncc(-c4ccc(Cl)cc4)cc23)c1F + CN(C)c1ccc(Nc2c3ccc(NC(=O)CCN4CCCC4)cc3nc3cc(NC(=O)CCN4CCCC4)ccc23)cc1 ?
### Response 0

### Prompt Call for entry COc1cc(C2c3cc4c(cc3C(OC3OC5COC(C)OC5C(O)C3O)C3COC(=O)C23)OCO4)cc(OC)c1O (stereo unspecified) + Cc1[nH]c2ccc(F)cc2c1-c1nc2c3cccnc3c3ncccc3c2[nH]1 :
### Response 0

### Prompt What did the test return for Cc1cccc(N(C)C(=O)C2C(O)CCN2c2nc(C)cc(C(F)(F)F)c2C#N)c1 (stereo unspecified) + Cc1[nH]c2ccc(F)cc2c1-c1nc2c3cccnc3c3ncccc3c2[nH]1 ?
### Response 0
